# METHOD SUMMARY: in vitro
# EXPERIMENTAL CONDITIONS: human, Caco-2
MEASURE NAME: Papp A→B at 50 μM (×10⁻⁶ cm/s)
Write it as a number; the unit ×10⁻⁶ cm/s goes unstated.

Papp A→B at 50 μM lookup needed for CC1CN(C(=O)c2cc(Cc3n[nH]c(=O)c4ccccc34)ccc2F)Cc2nnc(C(F)(F)F)n21 (stereo not shown) , thanks.
0.34

----------
# METHOD SUMMARY: Equilibrium solubility test (24 h, HPLC)
# Type: physicochemical
# EXPERIMENTAL CONDITIONS: thermodynamic from solid; pH 1.2 simulated gastric fluid, 37° C., 100 rpm, 24 h
MEASURE NAME: solubility thermodynamic at 24 h (µg/mL)
Give the number; µg/mL is assumed, so skip it.

Sample CC1CN(C(=O)c2cc(Cc3n[nH]c(=O)c4ccccc34)ccc2F)Cc2nnc(C(F)(F)F)n21 (stereo not shown) [SOMCL-9112] — what was its solubility thermodynamic at 24 h?
10.3
